Provide the recorded growth inhibition for the entries that follow.
- assay.protocol: NCI Yeast Anticancer Drug Screen. Data for the rad50 strain (AID 155);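 note: 0% = growth of vehicle-only cultures of the same strain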
- condition: S. cerevisiae rad50 strain growth inhibition; at 50.0 µM; active compounds read high
About 79,000 compounds went through this panel and 15% of them were active in at least one assay; those are over-represented in the sample as a whole.
Answers are plain numbers, in %.

Completed entries (count: 3):
compound	quantity.kind	unit.of.measurement	readout.value
CC(=O)O[C@@H]1C[C@]2(C)[C@@H](C(C)=O)CC[C@H]2[C@@H]2CCC3=CC(=O)CC[C@]3(C)[C@H]21	growth inhibition	%	-7.5
COC(=O)CC(=O)C[P+](c1ccccc1)(c1ccccc1)c1ccccc1	growth inhibition	%	6.5
CCOC(OC(C)=O)[C@@H]1C=C[C@H](C)N(c2ccc([N+](=O)[O-])cc2)O1 (stereo partly drawn)	growth inhibition	%	25.4

For each entry beneath this line, provide reported growth inhibition.
1. OCC1OC(n2cnc3c(NCc4ccccc4)ncnc32)C(O)C1O (stereo not drawn)
2. CCc1ccccc1NC(=O)C1=C(C)NC(C)=C(C(=O)Nc2ccccc2CC)C1c1cccc([N+](=O)[O-])c1
3. COc1cc(C2c3c(cc(OC)c(O)c3OC)C=C(C(=O)O)C2CO)cc(OC)c1O (stereo not drawn)
4. O=C1c2cc(Cl)ccc2-c2ccc(Cl)cc21
5. CC1(C)OC2C(COC(=O)c3ccc([N+](=O)[O-])cc3)OC(NC(=O)N(CCCl)N=O)C2O1 (stereo not drawn)

[-14.3, -0.95, 9.05, 2.75, -34.4]

For each entry beneath this line, provide reported growth inhibition.
1. Cc1cc(C)c2nc(N)sc2c1
2. COc1cccc(C(c2cc3c(cc2O)OCO3)N2CCOCC2)c1O (stereo not drawn)
3. CCC1(C(=O)O)NC(=O)NC1=O (stereo not drawn)

1: 24.3; 2: 15.9; 3: -2.55

For each entry beneath this line, provide reported growth inhibition.
1. CSc1ncc(CO)c(NC(C)(C)C)n1
2. CCCCCC(C)C(C#N)C(=O)OCC (stereo not drawn)
3. O=C(OCC1OC(OC(=O)c2ccc([N+](=O)[O-])cc2)CC(OC(=O)c2ccc([N+](=O)[O-])cc2)C1OC(=O)c1ccc([N+](=O)[O-])cc1)c1ccc([N+](=O)[O-])cc1 (stereo not drawn)
4. CC1(C)COC(=O)/C1=C/C#N
5. Cc1ccc(N=Cc2ccc(C(N)=S)cc2)cc1

1: 2.65; 2: 1.2; 3: 11.2; 4: 5.1; 5: 7.05

For each entry beneath this line, provide reported growth inhibition.
1. C=C1C(O)CC2C(O)C3(C)CCC(C)(C)C3C12O (stereo not drawn)
2. CC1CCC2(CC1)OC(C)C(C)O2 (stereo not drawn)
3. Nc1c(C(=O)O)cccc1C(=O)O

3.55
20.1
5.25

For each entry beneath this line, provide reported growth inhibition.
1. O=C(ON=C1c2ccccc2C(Br)C(Br)c2ccccc21)c1ccccc1 (stereo not drawn)
2. O=C(O)C12CCCCC1CCCC2 (stereo not drawn)
3. N#CCCOC(=O)Nc1ccccc1
4. Cc1cccc(C)c1NCC(=O)NN

1: 38; 2: 11.4; 3: 21.9; 4: 9.5
